Recorded values, source PubChem BioAssay (NCI).

# Test system: HS 578T breast
# run-description: NCI tumour cell line growth inhibition, 48 h
assay-readout: TGI

Before answering, review these 2 worked examples.
* CN1CCN(Cc2cc3c(nn2)-c2ccccc2C3=O)CC1 | > 100 µM
* CSc1nc2c(c(N(C)C)n1)C(O)n1c(nc3ccccc31)S2 (stereo not drawn) | > 70.8 µM

The compound listed as COc1ccc(/C=N/NC(=O)c2ccc(O)c(CN(C)C)c2)cc1 shows TGI equal to > 100 µM

----------
# Test system: A498 renal
# run-description: NCI tumour cell line growth inhibition, 48 h
assay-readout: TGI

* COC(=N)c1csc(C2OC(CO)C(O)C2O)n1 (stereo not drawn) | > 100 µM

Here COc1ccc(-c2nc3ccccc3c(=S)n2OC(C)=O)cc1 was tested on A498 renal, and its TGI came to > 25 µM

The value of TGI recorded for COCOCCC#CCO when tested on A498 renal reads > 100 µM

----------
# Test system: 786-0 renal
# run-description: NCI tumour cell line growth inhibition, 48 h
assay-readout: TGI

Please review the entries below; each comes with its answer.
- CC1(C)C=CC(=O)C(O)C(C)(C)C1=O (stereo not drawn): > 100 µM
- CC[C@]1(O)C[C@H]2CN(CCc3c([nH]c4ccccc34)C(C(=O)OC)(c3cc4c(cc3OC)N(C)[C@H]3[C@@](O)(C(=O)OC)[C@H](OC(C)=O)[C@]5(CC)[C@@H]6C[C@@H]6CN6CC[C@]43[C@@H]65)C2)C1 (stereo partly drawn): 5 µM
- CC1=C(C#N)c2nc3ccccc3n2C(=O)C1(C)CCO (stereo not drawn): > 100 µM
- NC(N)=Nc1nc2ccccc2o1: > 100 µM
- O=C1/C(=C/c2ccc(Cl)cc2)CCCc2ccccc21: 32.4 µM
- FC(F)(F)c1ccc2nc(NCc3ccccc3)c(-c3ccccc3)nc2c1: 53.1 µM
- CC(C)(C)OC(=O)NC(CSSCC(NC(=O)OC(C)(C)C)C(=O)O)C(=O)O (stereo not drawn): > 100 µM
- OCCCc1ccc2c(c1)[C@H](CO)[C@@H](c1ccc(O)cc1)O2: > 100 µM

TGI reading for O=C(O)c1cccc(S(=O)(=O)NN2C(=O)CSC2c2ccc(Cl)cc2Cl)c1 (stereo not drawn) : 29.4 µM

Field TGI (entry COC(=O)C1=CN(CC2=CC(=O)C(C)=CC2=O)C=C(C(=O)OC)C1c1ccccc1OC ) reads 28.9 µM

TGI recorded for this compound, CCN(C(=O)N[C@@H](C)C(=O)N[C@@H](Cc1ccccc1)C(=O)OC)c1ccccc1 , is > 100 µM

The measured TGI associated with Clc1ccc(C=NC23CC4CC(CC(C4)C2)C3)c(Cl)c1 reads > 10 µM

----------
# System: SF-268 CNS
# run-description: NCI tumour cell line growth inhibition, 48 h
assay-readout: TGI

• COc1ccc(Cl)cc1NC(=O)c1ccc(NC2=C(Cl)C(=O)N(Cc3ccccc3)C2=O)cc1 = > 100 µM
• CNCCCNc1ccnc2cc(Cl)ccc12 = 98.3 µM
• CNc1nncc2[nH]cnc12 = > 100 µM

Given item COc1ccc(/C=N/NC(=O)c2ccc(O)c(CN(C)C)c2)cc1 , the value recorded as its TGI is > 100 µM

Given item CC(C)(C)N=C(N)NC#N , the value recorded as its TGI is > 100 µM

TGI in this record for COc1cc(C[P+](c2ccccc2)(c2ccccc2)c2ccccc2)cc(OC)c1OC : > 100 µM

The molecule listed as Nc1ncc2c(n1)-c1ccccc1OC2N1CCCC1 (centres undefined) shows TGI equal to > 100 µM
